B1: ZNF207 (parent)
chain: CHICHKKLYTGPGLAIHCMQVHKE

variants of: B1; assay: protein stability index of a GFP-peptide fusion (GPS, HEK-293T) (PSI 1-6); higher = more stable; details: c terminus: a fixed tail appended;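 note: lentivirally expressed fusions sorted by FACS into six bins by GFP to DsRed ratio, PSI derived from sequencing read proportions per bin multiplied by bin number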
Listed below: protein stability index values for each entry.
// response body must contain only the number

Worked cases, protein stability index given:
CHICHKELYTGPGLAIHCMQVHKE [K7E]
4.14
CHICHKKLETGPGLAIHCMQVHKE [Y9E]
4.6

Now take the following variant into account.
Inquiry: protein stability index for CHICHKKLPTGPGLAIHCMQVHKE [Y9P] ?
Reply text: 3.64
